# peptide exchange yield annotations
Biological target: T1, HLA-B*07:02 (human)
T1 construct: Peptide-receptive MHC class I monomer made by UV cleavage of a UV-sensitive ligand
Experiment: UV ligand exchange ELISA; exchange yield grade

KPKAAKPKKAAA :: 20 to 50%

Consider IPANTEKASF . Its measured peptide exchange yield is 20 to 50%

Consider KAKKPAGAA . Its measured peptide exchange yield is 20 to 50%

Consider KPKAAKPKTA . Its measured peptide exchange yield is 20 to 50%

Consider KAFKWFSAL . Its measured peptide exchange yield is 20 to 50%

Consider SPADHRGYASL . Its measured peptide exchange yield is 20 to 50%
